# Test system: M14 melanoma
# experimentalProtocol: NCI-60 one-dose screen, 48 h
# studyConditions: 10 µM unless noted
This is part of a sample that, as a whole, favours compounds with a hit. Of some 83,000 tested, about 20% had one in any assay. The source made the active and inactive calls. How the source made its calls: active means growth percent below 10; inactive means the rest.
Give one outcome, nothing more. List: T for active, F for inactive

Example results:
compound	groupLabel
C=NNc1ccccc1	F
CCOc1ccc(NC(=O)c2cc(OC)c(OC)c(OC)c2)cc1	F
C#CC#CC#CC#CC#CC#CC#CC#CC[C@H]1OC[C@H](COC(=O)O[C@@H](C(=O)O[C@H]2C[C@@]3(O)[C@@H](OC(=O)c4ccccc4)[C@@H]4[C@]5(OC(C)=O)CO[C@@H]5C[C@H](O)[C@@]4(C)C(=O)[C@H](OC(C)=O)C(=C2C)C3(C)C)[C@@H](NC(=O)c2ccccc2)c2ccccc2)O1	F

Prompt line: GET /call?item= `Cc1ccc(O)c(NC(=O)c2ccc(CNc3ccnc(C(F)(F)F)c3)cc2)c1` returns the recorded outcome of this test.
Response line: F

Prompt line: Hi, sorry to bother you, what did the test record for CC1CN=C(c2cccc(-c3ccc(-c4ccccc4)o3)c2)N1 (centres undefined) ?
Response line: T

Prompt line: Answer briefly: the call reported for `C/C(=N\Nc1nc(C)cs1)c1cc2ccccc2o1` in this assay.
Response line: F

Prompt line: Which outcome was entered for the compound CC1(C)C2CC=C(/C=N/NC(=O)C3CCC(=O)N3)C1C2 (centres undefined) in this test?
Response line: F

Prompt line: Recorded test call requested for `CCN(CC)CCOc1ccc(Nc2ncc3cc(-c4ccc(O)cc4)c(=O)n(C)c3n2)cc1`
Response line: F

Prompt line: GET /call?item= `Clc1ccc(-c2nc(-c3c[nH]c4ncccc34)cs2)cc1` returns the recorded outcome of this test.
Response line: F

Prompt line: Record request — test call for `O=C(CCCCNC(=O)c1cc(=O)c(O)co1)Nc1ccccc1`
Response line: F
